measured-target: 5-HT1A (Homo sapiens)
Sequence (P08908 whole entry): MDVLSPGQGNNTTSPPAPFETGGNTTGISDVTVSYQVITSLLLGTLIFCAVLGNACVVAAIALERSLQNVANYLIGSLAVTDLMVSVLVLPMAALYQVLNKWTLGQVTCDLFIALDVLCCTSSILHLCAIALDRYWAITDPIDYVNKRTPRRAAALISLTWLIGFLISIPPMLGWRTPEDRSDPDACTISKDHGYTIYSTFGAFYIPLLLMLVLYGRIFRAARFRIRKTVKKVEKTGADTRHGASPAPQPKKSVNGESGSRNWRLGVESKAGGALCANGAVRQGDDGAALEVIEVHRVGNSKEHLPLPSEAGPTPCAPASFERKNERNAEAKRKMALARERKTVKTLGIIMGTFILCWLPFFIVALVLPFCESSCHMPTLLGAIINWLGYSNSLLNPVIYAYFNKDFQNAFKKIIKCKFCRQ
protocol-notes: Radioligand binding at 5-HT1A(h) (agonist radioligand), Eurofins Cerep Panlabs
measurement-parameters: % inh. at 1.0 μM; human receptor; duplicate; read-out: Percent Inhibition of the Binding of a Specific Radioligand, 5-HT1A
readout-type: inhibition at 1 µM (%)
One number for each entry, in %.

State the recorded inhibition at 1 µM for every item in the following list.
1. CN1C[C@@H](CO)C=C2c3cccc4[nH]cc(c34)C[C@@H]21 [(−)-1, (−)-lysergol]
2. CN1C[C@@H](CO)C=C2c3cccc4[nH]cc(c34)C[C@H]21 [(+)-2, (+)-isolysergol]
3. CN1C[C@H](CO)C=C2c3cccc4[nH]cc(c34)C[C@H]21 [(+)-1, (+)-lysergol]
4. CN1C[C@H](CO)C=C2c3cccc4[nH]cc(c34)C[C@@H]21 [(−)-2, (−)-isolysergol]

Result:
67
99
99
19
